Where do these numbers come from? They come from paper PMC7532196.

Biological target: MetR (Pseudomonas savastanoi pv. phaseolicola 1448A (P. syringae)) (UniProt Q48EZ0)
Sequence: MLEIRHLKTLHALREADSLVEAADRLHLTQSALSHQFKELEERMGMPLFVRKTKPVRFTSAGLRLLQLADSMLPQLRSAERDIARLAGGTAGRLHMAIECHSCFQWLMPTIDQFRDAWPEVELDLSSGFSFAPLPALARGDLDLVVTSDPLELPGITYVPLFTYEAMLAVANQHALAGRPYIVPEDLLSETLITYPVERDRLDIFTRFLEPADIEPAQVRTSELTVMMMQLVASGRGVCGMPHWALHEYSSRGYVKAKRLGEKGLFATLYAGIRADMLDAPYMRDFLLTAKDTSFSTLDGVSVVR
Assay: EMSA
Conditions: EMSA: 30 ng probe in 20 ul, 10 mM Tris-HCl pH 7.4, 50 mM KCl, 5 mM MgCl2, 10% glycerol, room temperature 30 min, 6% PAGE
measure name: binding

TCAAGAATTACAGTTGTGCCTTGCGTCATATGTGATCTGCTTATATGTATATGAAAAAAACTCATTATGAGTCAGTCTTGTATAACGTATTTAATACGGCCCTTTAATCAAACTACAAACACTTTTTTCAGGGGATTTCTGTGAA (double strand) [PSPPH_1024 promoter]; binds
GATGGGTGTTCGGTGATGACTATATGACATCACGGAACCGACTTTAACAGATGAAAAAAATTCAATTACAGGCGAGGTACAGGTTGATCGGCCGCAGACGGCTACTTTTTAAGCGCTATCGGTCGCGCAGCCCCATAAGATAAAGGGCCTGCTCATTTGTATGCA (double strand) [PSPPH_4247 promoter]; binds
GGTGCGGCATATCCCGTAGGCTCTGTCATTAAAAATGGCACAATTCTACTAGGCCGTCATTGCCTCCAACATGAATGATTTTCATGCAAAAGCCGCAGCACCACCAAAACCGTTCCGGTTTGCTATCATCCCGTTCTTTAAAGTA (double strand) [PSPPH_2621 promoter]; binds
